- tested.target: Full-length PRMT5 enzyme co-expressed with His6-MEP50 (Homo sapiens (Human))
- Sequence (O14744 whole entry): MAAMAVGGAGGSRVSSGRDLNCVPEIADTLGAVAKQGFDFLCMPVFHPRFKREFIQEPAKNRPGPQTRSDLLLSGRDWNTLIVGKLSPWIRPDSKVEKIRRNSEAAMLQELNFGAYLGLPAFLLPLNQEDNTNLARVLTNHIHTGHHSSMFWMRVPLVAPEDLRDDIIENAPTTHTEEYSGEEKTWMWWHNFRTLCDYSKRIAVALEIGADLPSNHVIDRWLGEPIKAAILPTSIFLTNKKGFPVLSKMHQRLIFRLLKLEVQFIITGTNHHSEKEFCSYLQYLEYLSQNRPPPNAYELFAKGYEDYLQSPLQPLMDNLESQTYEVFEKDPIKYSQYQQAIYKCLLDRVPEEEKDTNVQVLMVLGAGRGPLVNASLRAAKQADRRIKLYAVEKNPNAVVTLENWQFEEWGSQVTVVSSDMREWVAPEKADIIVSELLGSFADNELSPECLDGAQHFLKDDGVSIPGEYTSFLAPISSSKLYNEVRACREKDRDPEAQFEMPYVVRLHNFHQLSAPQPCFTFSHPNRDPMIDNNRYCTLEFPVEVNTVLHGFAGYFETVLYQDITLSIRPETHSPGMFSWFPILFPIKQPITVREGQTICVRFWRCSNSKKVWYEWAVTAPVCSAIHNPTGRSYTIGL
- Sequence (Q9BQA1 whole entry partner): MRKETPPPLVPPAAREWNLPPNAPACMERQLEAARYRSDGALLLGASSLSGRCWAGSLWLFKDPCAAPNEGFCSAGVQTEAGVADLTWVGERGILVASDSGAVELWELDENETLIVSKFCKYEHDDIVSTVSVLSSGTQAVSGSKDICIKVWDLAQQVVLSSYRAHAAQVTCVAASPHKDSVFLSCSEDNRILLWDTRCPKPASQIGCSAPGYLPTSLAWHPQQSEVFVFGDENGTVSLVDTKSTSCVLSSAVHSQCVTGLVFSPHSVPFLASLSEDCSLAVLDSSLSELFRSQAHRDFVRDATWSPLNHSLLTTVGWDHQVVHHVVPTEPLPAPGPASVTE
property.label: IC50 (nM)
Write the value in nM as a bare number.

Item CCOc1cc(C(=O)N2C3CCC2COC3)ccc1C(=O)NC[C@@H](O)[C@@H]1Cc2ccccc2CN1C [Example 3, 2,2,2-trifluoroacetate] with Full-length PRMT5 enzyme co-expressed with His6-MEP50 (Homo sapiens (Human)) - IC50? 1010

Item "CCOc1cc(C(=O)N2C3CCC2COC3)ccc1C(=O)NC[C@@H](O)[C@@H]1Cc2ccc(OC)cc2CN1" with Full-length PRMT5 enzyme co-expressed with His6-MEP50 (Homo sapiens (Human)) - IC50? 15

Item "COc1ccc2c(c1)CN[C@H]([C@H](O)CNC(=O)c1ccc(C(=O)N3C4CCC3COC4)cc1)C2" with Full-length PRMT5 enzyme co-expressed with His6-MEP50 (Homo sapiens (Human)) - IC50? 18

This collection of values is drawn from patent US10421743B2.
